Collected TGI values appear next to each entry.
test system: OVCAR-4 ovarian; test: NCI tumour cell line growth inhibition, 48 h

- Compound: "O=C1NC(=O)[C@@]2(CC[C@@H](O)C2)c2ccncc21"
  Target System: "OVCAR-4 ovarian"
  TGI: "> 100 µM"
- Compound: "O=C1NCN(c2ccccc2)C12CCN(CCCC(c1ccc(F)cc1)c1ccc(F)cc1)CC2"
  Target System: "OVCAR-4 ovarian"
  TGI: "9.98 µM"
- Compound: "C#CCN(N=O)C(=O)NCCCCC(NC(=O)OCc1ccccc1)C(=O)OCc1ccccc1 (stereo unspecified)"
  Target System: "OVCAR-4 ovarian"
  TGI: "> 100 µM"
- Compound: "COc1ccc2c3c(c(C(=O)O)oc13)CCC2"
  Target System: "OVCAR-4 ovarian"
  TGI: "> 100 µM"
- Compound: "CC(C)=O.O=C([O-])C(F)(F)F.O=C([O-])C(F)(F)F.O=C([O-])C(F)(F)F.O=C([O-])C(F)(F)F.[Rh+2].[Rh+2]"
  Target System: "OVCAR-4 ovarian"
  TGI: "> 100 µM"
- Compound: "O=c1/c(=C/c2c(O)ccc3ccccc23)sc2nc3ccccc3n12"
  Target System: "OVCAR-4 ovarian"
  TGI: "> 100 µM"
- Compound: "C=CC(C)(C)C1(CC(OC)OC)C(=O)N(C)c2ccccc21 (stereo unspecified)"
  Target System: "OVCAR-4 ovarian"
  TGI: "> 25 µM"
- Compound: "COc1cc(S(=O)(=O)Nc2ccc(-c3csc(N4C(=O)C(Cl)C4c4cccc(Oc5ccccc5)c4)n3)cc2)ccc1Cl (stereo unspecified)"
  Target System: "OVCAR-4 ovarian"
  TGI: "18.1 µM"
- Compound: "Nc1ncnc2c1ncn2C1OC(CO)C(O)C1NS(=O)(=O)c1ccccc1 (stereo unspecified)"
  Target System: "OVCAR-4 ovarian"
  TGI: "> 100 µM"
- Compound: "CCO/C(CCn1[nH]c(=O)c(Cl)c(Cl)c1=O)=N\\NC(=O)C(=O)NN"
  Target System: "OVCAR-4 ovarian"
  TGI: "> 100 µM"
- Compound: "C[C@]12C(=O)C=CCC1=CC[C@@H]1[C@@H]2[C@H]2CC3(O)C(=O)O[C@@]4(C)[C@H]5C[C@@]6(C)[C@@H]7[C@@]2(O)[C@]1(OC[C@H]6C(=O)O5)O[C@]734 (stereo partly specified)"
  Target System: "OVCAR-4 ovarian"
  TGI: "> 100 µM"
- Compound: "CC(C)NCC(O)c1ccc(O)c2ncccc12 (stereo unspecified)"
  Target System: "OVCAR-4 ovarian"
  TGI: "> 100 µM"
- Compound: "CN(C)c1ccc(C(=N)c2ccc(N(C)C)cc2)cc1"
  Target System: "OVCAR-4 ovarian"
  TGI: "> 100 µM"
- Compound: "NC(=S)Nc1ccc2c(c1)oc1ccccc12"
  Target System: "OVCAR-4 ovarian"
  TGI: "> 100 µM"
- Compound: "N=S(=O)(c1ccccc1)c1ccccc1"
  Target System: "OVCAR-4 ovarian"
  TGI: "> 100 µM"
- Compound: "Nc1nc2c(c(-c3ccccc3Cl)n1)COC/C2=C\\c1ccccc1Cl"
  Target System: "OVCAR-4 ovarian"
  TGI: "39 µM"
- Compound: "CC1(C)OC2CC3COC(=O)C3CC2O1 (stereo unspecified)"
  Target System: "OVCAR-4 ovarian"
  TGI: "> 100 µM"
- Compound: "O=C(N/C(=C\\c1c(O)ccc2ccccc12)c1nc2ccccc2[nH]1)c1ccccc1"
  Target System: "OVCAR-4 ovarian"
  TGI: "> 100 µM"
- Compound: "N/C(=N\\S(=O)(=O)c1ccc(-c2ccccn2)s1)Nc1ccc(Cl)cc1"
  Target System: "OVCAR-4 ovarian"
  TGI: "37.7 µM"
- Compound: "CN(C)C[C@H]1CCn2c(c(C3=C(c4cn(C)c5ccccc45)C(=O)NC3=O)c3ccccc32)C1"
  Target System: "OVCAR-4 ovarian"
  TGI: "12.5 µM"
- Compound: "COc1ccc(C(=O)c2c(-c3ccccc3NC(=O)C(F)(F)F)[nH]c3ccccc23)cc1"
  Target System: "OVCAR-4 ovarian"
  TGI: "19.2 µM"
- Compound: "COc1ccc(OC)c(NC(=O)c2cccc(NC3=C(Cl)C(=O)N(Cc4ccccc4)C3=O)c2)c1"
  Target System: "OVCAR-4 ovarian"
  TGI: "> 100 µM"
- Compound: "O=C1/C(=C/c2ccc(F)c(F)c2)CN(C(=O)C(Cl)Cl)C/C1=C\\c1ccc(F)c(F)c1"
  Target System: "OVCAR-4 ovarian"
  TGI: "1.24 µM"
- Compound: "CC(C(=O)NCCNC(=O)CCC(=O)N(C)O)C(=O)NCCNC(=O)CCC(=O)N(C)O"
  Target System: "OVCAR-4 ovarian"
  TGI: "> 100 µM"
- Compound: "COc1cc(N)c2[nH]c3c(C)ccc(C)c3c2c1"
  Target System: "OVCAR-4 ovarian"
  TGI: "> 100 µM"
- Compound: "Nc1ccc2nc(Nc3ccc(Cl)c(Cl)c3)cnc2c1"
  Target System: "OVCAR-4 ovarian"
  TGI: "60.4 µM"
- Compound: "COc1cccc2c1C(=O)c1c(O)c3c(c(O)c1C2=O)C[C@@](O)(C(=O)CN1CCOCC1)C[C@@H]3OC1CC(N)C(O)C(C)O1 (stereo partly specified)"
  Target System: "OVCAR-4 ovarian"
  TGI: "69.6 µM"
- Compound: "COc1cc2c(c(O)c1C)C(=O)CC(c1ccccc1)O2 (stereo unspecified)"
  Target System: "OVCAR-4 ovarian"
  TGI: "> 10 µM"
- Compound: "O=C(/C=C/c1ccc2c(c1)OCO2)NCCc1ccco1"
  Target System: "OVCAR-4 ovarian"
  TGI: "> 100 µM"
- Compound: "C[C@]12CC[C@@H]3c4ccc(O)cc4CC[C@H]3[C@@H]1CC[C@@H]2NS(=O)(=O)c1cccc(Cl)c1"
  Target System: "OVCAR-4 ovarian"
  TGI: "10.5 µM"
- Compound: "O=S(c1ccccc1)C1CC2CC3(CCC21O)OCCO3 (stereo unspecified)"
  Target System: "OVCAR-4 ovarian"
  TGI: "> 100 µM"

----------
tested on: SNB-75 CNS; assay: NCI tumour cell line growth inhibition, 48 h
Collected TGI values appear next to each entry.

- Compound: "CC(C)NCC(O)c1ccc(O)c2ncccc12 (stereo not drawn)"
  TGI: "> 100 µM"
- Compound: "Cc1c(-c2coc(-c3ccccc3)n2)c(=O)n(-c2ccccc2)n1C"
  TGI: "> 100 µM"
- Compound: "CC(N)Cc1ccc(Cl)cc1 (stereo not drawn)"
  TGI: "> 100 µM"

----------
test system: UACC-62 melanoma; test: NCI tumour cell line growth inhibition, 48 h
Collected TGI values appear next to each entry.

- Compound: "CC(CN1CC(=O)NC(=O)C1)N1CC(=O)NC(=O)C1 (stereo not given)"
  TGI: "> 686 µM"
- Compound: "COc1ccc(C2S/C(=C\\c3cccc(OC)c3)C(=O)N2NC(=O)Cc2ccccc2)cc1 (stereo not given)"
  TGI: "> 100 µM"
- Compound: "COc1cc(OCc2nc3cc(C(F)(F)F)ccc3nc2-c2ccccc2)cc(OC)c1OC"
  TGI: "> 100 µM"
- Compound: "c1ccc(C(c2cccc3c2ccc2ccccc23)C(c2ccccc2)c2cccc3c2ccc2ccccc23)cc1 (stereo not given)"
  TGI: "> 100 µM"
- Compound: "CC(C)NCC(O)c1ccc(O)c2ncccc12 (stereo not given)"
  TGI: "> 100 µM"

----------
system: K-562 leukemia; assay: NCI tumour cell line growth inhibition, 48 h
Where a SMILES comes first, the peptide text is derived from it. The star is where a group is joined. Boc = CC(C)(C)OC(=O)*
Property Label: TGI

- Molecule: "C/C(=N/NC(=S)N(C)C)c1ccccc1O"
  Property Label: "TGI"
  Observed Measurement: "> 100 µM"
- Molecule: "CCn1c(-c2ccc(OC)cc2)nc2c1C(=O)c1ccccc1C2=O"
  Property Label: "TGI"
  Observed Measurement: "> 100 µM"
- Molecule: "Oc1cc(O)c2c(c1)O[C@H](c1cc(O)c(O)c(O)c1)[C@@H](O)C2"
  Property Label: "TGI"
  Observed Measurement: "38.2 µM"
- Molecule: "COC(NC(N)=O)C(=O)O (stereo unspecified)"
  Property Label: "TGI"
  Observed Measurement: "> 100 µM"
- Molecule: "COc1cc(OC)cc(-c2nc3sccn3c2/C=N/N=C(N)N)c1"
  Property Label: "TGI"
  Observed Measurement: "19 µM"
- Molecule: "CC(N)Cc1ccc(Cl)cc1 (stereo unspecified)"
  Property Label: "TGI"
  Observed Measurement: "> 100 µM"
- Molecule: "N=c1n(CC(=O)NC23CC4CC(CC(C4)C2)C3)c2ccccc2n1CC(=O)NC12CC3CC(CC(C3)C1)C2"
  Property Label: "TGI"
  Observed Measurement: "5.54 µM"
- Molecule: "CC(=O)NNc1nc(C)c(C(/C=C/c2ccc([N+](=O)[O-])cc2)=N/NC(N)=O)s1"
  Property Label: "TGI"
  Observed Measurement: "> 100 µM"
- Molecule: "COC(=O)c1ccccc1NC(=S)NN(C)C"
  Property Label: "TGI"
  Observed Measurement: "> 100 µM"
- Molecule: "C=C(C)[C@@H]1CC[C@]2(COCCCNCCCN)CC[C@]3(C)[C@H](CC[C@@H]4[C@@]5(C)CC[C@H](OCCCN)C(C)(C)[C@@H]5CC[C@]43C)[C@@H]12"
  Property Label: "TGI"
  Observed Measurement: "1.82 µM"
- Molecule: "CCCCOc1c(C(=O)O)cc(Br)cc1C(=O)O"
  Property Label: "TGI"
  Observed Measurement: "> 100 µM"
- Molecule: "CCN1C(=O)N(CC)C2C1NN=c1s/c(=C\\c3cccs3)c(=O)n12 (stereo unspecified)"
  Property Label: "TGI"
  Observed Measurement: "> 100 µM"
- Molecule: "NCCOCn1cc(Cc2cccc(OCc3ccccc3)c2)c(=O)[nH]c1=O"
  Property Label: "TGI"
  Observed Measurement: "> 100 µM"
- Molecule: "COc1ccc(OC)c(NC2=NCCO2)c1"
  Property Label: "TGI"
  Observed Measurement: "> 100 µM"
- Molecule: "O=C(O)CNc1ccc(Cl)c(Cl)c1"
  Property Label: "TGI"
  Observed Measurement: "78.4 µM"
- Molecule: "COC1(OC)C2(Cl)C(Cl)=C(Cl)C1(Cl)C1c3ccc(C(C)=O)c4cccc(c34)C12 (stereo unspecified)"
  Property Label: "TGI"
  Observed Measurement: "> 100 µM"
- Molecule: "CCN(CC)CCCOc1ccc2ncnc(Nc3ccc(Oc4cccc(C(F)(F)F)c4)c(Cl)c3)c2c1"
  Property Label: "TGI"
  Observed Measurement: "8.73 µM"
- Molecule: "C=CC(C)(C)C1(CC(OC)OC)C(=O)N(C)c2ccccc21 (stereo unspecified)"
  Property Label: "TGI"
  Observed Measurement: "> 25 µM"
- Molecule: "CN(C)c1ccc(C(=N)c2ccc(N(C)C)cc2)cc1"
  Property Label: "TGI"
  Observed Measurement: "64.9 µM"
- Molecule: "C/C=C/c1cc2c(c(=O)o1)C(=O)[C@@H](O)[C@H](C)O2"
  Property Label: "TGI"
  Observed Measurement: "> 100 µM"
- Molecule: "CN(C)C(=S)/N=c1\\ssc(=S)n1Cc1cccs1"
  Property Label: "TGI"
  Observed Measurement: "> 55.8 µM"
- Molecule: "COc1cc(N)c2[nH]c3c(C)ccc(C)c3c2c1"
  Property Label: "TGI"
  Observed Measurement: "> 100 µM"
- Molecule: "c1ccc(C(c2cccc3c2ccc2ccccc23)C(c2ccccc2)c2cccc3c2ccc2ccccc23)cc1 (stereo unspecified)"
  Property Label: "TGI"
  Observed Measurement: "> 100 µM"
- Molecule: "O=C(Nc1ccc2ncnc(Nc3ccc(Oc4cccc(F)c4)c(Cl)c3)c2c1)c1ccc(CN2CCOCC2)cc1"
  Property Label: "TGI"
  Observed Measurement: "11.7 µM"
- Molecule: "CCCCC(=C=C(C)CO)C1CCCN1C(=O)OC(C)(C)C (stereo unspecified)"
  Property Label: "TGI"
  Observed Measurement: "38.4 µM"
- Molecule: "CSCCC(NC(=O)C(CC(C)C)NC(=O)C1CCCN1C(=O)C(Cc1ccccc1)NC(=O)C(Cc1ccccc1)NC(=O)C(CCC(=O)O)NC(=O)OC(C)(C)C)C(N)=O (stereo unspecified) (Boc-EFFPLM-NH2; configuration not given here)"
  Property Label: "TGI"
  Observed Measurement: "> 100 µM"
